Lab note: compare logP against 1. Equal or greater, write true. Smaller, write false.

INSERT INTO measurements (chemical_string, class_label) VALUES
  ('CCNc1cc(-c2nc(N)n[nH]2)ccn1', 'true'),
  ('Nc1nc(-c2ccnc(NCCCc3ccccc3)c2)n[nH]1', 'true'),
  ('COCCNc1cc(-c2nnc(N)[nH]2)ccn1', 'false'),
  ('CCCCNc1cc(-c2n[nH]c(N)n2)ccn1', 'true'),
  ('CCCCCCNc1cc(-c2n[nH]c(N)n2)ccn1', 'true'),
  ('CCCNc1cc(-c2nnc(N)[nH]2)ccn1', 'true'),
  ('C=CCNc1cc(-c2nc[nH]n2)ccn1', 'true'),
  ('Cc1ccc(CNc2cc(-c3n[nH]c(N)n3)ccn2)cc1', 'true'),
  ('CNc1cc(-c2n[nH]c(N)n2)ccn1', 'false'),
  ('CCCCCCCCCCNc1cc(-c2nnc(N)[nH]2)ccn1', 'true'),
  ('Nc1n[nH]c(-c2ccnc(NCCO)c2)n1', 'false'),
  ('Nc1cc(-c2nnc(N)[nH]2)ccn1', 'false'),
  ('Nc1nc(-c2ccnc(NCCc3ccccc3)c2)n[nH]1', 'true');

Values compiled from the OPERA property sets (Mansouri et al. 2018).
